RECORDED METRIC: log10 of O2 permeability (log10 of the value in Barrer)

>>> quantitative_result("*C(=C(*)c1ccc([Si](C(C)C)(C(C)C)C(C)C)cc1)c1ccccc1 (repeat unit)")
2.46
>>> quantitative_result("*C(F)(F)C(*)(F)F (repeat unit)")
0.69
>>> quantitative_result("*c1cc(-c2nc3cc(-c4ccc5[nH]c(*)nc5c4)ccc3[nH]2)cc(C(C)(C)C)c1 (repeat unit)")
-0.38
>>> quantitative_result("*Oc1ccc(C(C)(C)c2ccc(C(C)(C)c3ccc(Oc4ccc(S(=O)(=O)c5ccc(*)cc5)cc4)cc3)cc2)cc1 (repeat unit)")
0.26
>>> quantitative_result("*c1ccc2c(c1)-c1nc3ccc(-c4ccc5c(c4)nc4n5C(=O)c5cc(C(c6ccc7c(c6)C(=O)N(*)C7=O)(C(F)(F)F)C(F)(F)F)ccc5-4)cc3n1C2=O (repeat unit)")
1.81

----------
Reported N2 permeability values for a set of compounds
RECORDED METRIC: N2 permeability

>>> result("*O[Si](*)(C)C (repeat unit)")
"351 Barrer"
>>> result("*C(=C(*)c1ccc(C(C)(C)C)cc1)c1ccc(O[Si](C)(C)C(C)(C)C)cc1 (repeat unit)")
"210 Barrer"
>>> result("*Oc1c(C)cc(C(C)(C)c2ccc(C(C)(C)c3cc(C)c(Oc4ccc(S(=O)(=O)c5ccc(*)cc5)cc4)c(C)c3)cc2)cc1C (repeat unit)")
"0.571 Barrer"
>>> result("*Oc1ccc(S(=O)(=O)c2ccc(Oc3c(C)cc(C(c4cc(C)c(*)c(C)c4)(C(F)(F)F)C(F)(F)F)cc3C)cc2C(O)(C(F)(F)F)C(F)(F)F)c(C(O)(C(F)(F)F)C(F)(F)F)c1 (repeat unit)")
"5.92 Barrer"

----------
Reported N2 permeability values for a set of molecules
RECORDED METRIC: N2 permeability (Barrer)

>>> quantitative_result("*c1cc(-c2nc3cc(-c4ccc5[nH]c(*)nc5c4)ccc3[nH]2)cc(C(C)(C)C)c1 (repeat unit)")
0.06
>>> quantitative_result("*c1cc2c(cc1*)C1(C(C)C)c3ccccc3C2(C(C)C)c2cc3c(cc21)Oc1cc2nc(*)c(*)nc2cc1O3 (repeat unit)")
7.09
>>> quantitative_result("*Oc1ccc(C2(c3ccc(OC(=O)c4cccc(C(*)=O)c4)cc3)OC(=O)c3ccccc32)cc1 (repeat unit)")
0.303
>>> quantitative_result("*c1cccc(Oc2cccc(N3C(=O)c4ccc(C(c5ccc6c(c5)C(=O)N(*)C6=O)(C(F)(F)F)C(F)(F)F)cc4C3=O)c2)c1 (repeat unit)")
0.1
>>> quantitative_result("*Oc1ccc(C(C)(C)c2ccc(Oc3ccc(C(=O)c4ccc(C(=O)c5ccc(*)cc5)cc4)cc3)cc2)cc1 (repeat unit)")
0.087
>>> quantitative_result("*C(=C(*)c1ccc2c(c1)C(C)(C)c1ccccc1-2)c1ccccc1 (repeat unit)")
3300
>>> quantitative_result("*c1ccc(Oc2ccc(Oc3ccc(Oc4ccc(N5C(=O)c6ccc(-c7ccc8c(c7)C(=O)N(*)C8=O)cc6C5=O)cc4)cc3)cc2)cc1 (repeat unit)")
0.0392

----------
Reported H2 permeability values for a set of compounds
RECORDED METRIC: H2 permeability (Barrer)

>>> quantitative_result("*c1ccc(-c2ccc(N3C(=O)c4ccc(C(=O)Oc5ccc(C(c6ccc(OC(=O)c7ccc8c(c7)C(=O)N(*)C8=O)cc6)(C(F)(F)F)C(F)(F)F)cc5)cc4C3=O)cc2)cc1 (repeat unit)")
5.01
>>> quantitative_result("*c1ccc(Oc2ccc(C(c3ccc(Oc4ccc(N5C(=O)c6ccc(C(=O)c7ccc8c(c7)C(=O)N(*)C8=O)cc6C5=O)cc4C(F)(F)F)cc3)(C(F)(F)F)C(F)(F)F)cc2)c(C(F)(F)F)c1 (repeat unit)")
24.6
>>> quantitative_result("*C(C)=C(*)CCCCC (repeat unit)")
150
>>> quantitative_result("*C(=C(*)c1ccc2c(c1)C(C)(C)c1cc(Br)ccc1-2)c1ccccc1 (repeat unit)")
3700
>>> quantitative_result("*c1ccc(Oc2ccc3ccccc3c2-c2c(Oc3ccc(N4C(=O)c5ccc(C(c6ccc7c(c6)C(=O)N(*)C7=O)(C(F)(F)F)C(F)(F)F)cc5C4=O)cc3)ccc3ccccc23)cc1 (repeat unit)")
21.1
>>> quantitative_result("*C(=C(*)c1ccc([Si](C)(C)C)cc1)c1ccc(-c2ccc(C(C)(C)C)cc2)cc1 (repeat unit)")
1200
>>> quantitative_result("*Oc1ccc(C2(c3ccc(OC(=O)c4cccc(C(*)=O)c4)cc3)OC(=O)c3ccccc32)cc1 (repeat unit)")
17.2
